System: A549 cells
assay_method_text: IC50 assay, inhibition of cell proliferation and growth, A549
Type: cell-based, human
setup_conditions: Homo sapiens; A549 bronchogenic cell line; neutral red or crystal violet; read-out: IC50 Concentrations, A 549
outcome_measure: IC50

compound="O=C(Nc1ccc2ccc(=O)oc2c1)c1cc([N+](=O)[O-])ccc1I [Ref. No. 4]" system_under_test="A549 cells" experimental_result="> 500 µM"
compound="O=C(NC1=NCCS1)c1cc([N+](=O)[O-])ccc1I [Ref. No. 23]" system_under_test="A549 cells" experimental_result="> 500 µM"
compound="C=C(C)c1ccccc1NC(=O)c1cc([N+](=O)[O-])ccc1I [Ref. No. 9]" system_under_test="A549 cells" experimental_result="> 500 µM"

----------
Measured IC50 of individual entries
Test system: M14 cells
assay_method_text: IC50 assay, inhibition of cell proliferation and growth, M14
Type: cell-based, human
setup_conditions: Homo sapiens; M14 melanoma cell line; neutral red or crystal violet; read-out: IC50 Concentrations, M14
outcome_measure: IC50

chemical_smiles=NC(=O)c1cc(N)ccc1I experimental_result="> 500 µM"
chemical_smiles=C=C(C)c1ccccc1NC(=O)c1cc([N+](=O)[O-])ccc1I experimental_result="> 500 µM"
chemical_smiles=O=C(Nc1ccc2ccc(=O)oc2c1)c1cc([N+](=O)[O-])ccc1I experimental_result="> 500 µM"
